// provenance: patent US20140205597A1

# system: analytical polyclonal antibody obtained in Example 2
# assay notes: SPR Biacore T100, immobilized polyclonal, 500 nM ISV
# Binding (RU) listing for each entry below
Record the value in RU, omitting the unit from your answer.

[
  {
    "binder": "Nb3.11 (VHH) VHH: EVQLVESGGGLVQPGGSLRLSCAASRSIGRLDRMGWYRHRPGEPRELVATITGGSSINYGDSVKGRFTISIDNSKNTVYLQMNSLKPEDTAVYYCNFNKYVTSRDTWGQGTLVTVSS",
    "unit abbrev": "RU",
    "Binding (RU)": 88
  }
]

// Binding (RU) value for Nb3.12 (VHH) VHH: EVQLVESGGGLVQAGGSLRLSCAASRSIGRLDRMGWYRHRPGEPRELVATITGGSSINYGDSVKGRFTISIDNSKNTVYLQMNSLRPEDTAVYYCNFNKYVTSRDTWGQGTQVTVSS : 86
